meta.source: PubChem BioAssay AID720542

- System: Plasmodium falciparum AMA1 (3D7) - RON2 peptide interaction
- experiment-notes: qHTS for Inhibitors of AMA1-RON; Towards Development of Antimalarial Drug Lead: Primary Screen; also: nearly all actives have a fitted effect of over 45% in size
- measurement-conditions: AlphaScreen AMA1-biotinylated RON2 peptide binding; series mostly up to 58.2 µM
About 740 (0.21%) of roughly 360,000 compounds were called active. Inconclusive results (about 2%) are left out. Calls follow the shape of the dose curve; as a rule, active = well fitted inhibition curve with a large enough effect; inconclusive = small, poorly fitted or top-dose-only effect; inactive = no such curve, though single readings can be large or run the other way. The list comes from a sample in which actives are over-represented; it also holds close analogues and randomly drawn compounds.
// allowed return values: active, inactive

These recorded examples may help you get a feel for the data.
{"columns": ["molecule", "assigned-class"],
 "data": [
  ["C=CCc1cccc2cc(C(=O)Nc3ccc(NC(C)=O)cc3)c(=O)oc12", "inactive"],
  ["Cc1cc(C)cc(NC(=O)N2CCC(NC(=O)c3ccc(F)cc3)CC2)c1", "inactive"]
]}

Task: Dear all, I need the recorded test outcome for COc1ccc(NC(=O)NC2CC3CCCC(C2)N3Cc2ccccc2)cc1 (stereo unspecified) , thank you.
Output: inactive

Task: Dear all, I need the recorded test outcome for CN(C)c1ccc(Nc2c3c4c(cccc4n(C)c2=O)C(=O)c2ccccc2-3)cc1 , thank you.
Output: active

Task: Dear all, I need the recorded test outcome for CC(Sc1nnnn1C1CCCCC1)C(=O)O (stereo unspecified) , thank you.
Output: inactive

Task: Dear all, I need the recorded test outcome for CCC(C)C(=O)Nc1ccccc1N1CCN(c2ccc(F)cc2)CC1 (stereo unspecified) , thank you.
Output: inactive

###

- System: Plasmodium falciparum AMA1 (3D7) - RON2 peptide interaction
- experiment-notes: qHTS for Inhibitors of AMA1-RON; Towards Development of Antimalarial Drug Lead: Primary Screen; also: nearly all actives have a fitted effect of over 45% in size
- measurement-conditions: AlphaScreen AMA1-biotinylated RON2 peptide binding; series mostly up to 58.2 µM
The campaign covered roughly 360,000 compounds. About 740 (0.21%) were called active. Another 2% or so got no clear call; they are omitted. Only a selection was taken, and actives are over-represented in it overall.
measured-quantity: outcome

{"columns": ["compound", "outcome"],
 "data": [
  ["Cc1cccc(CSc2nc3c(c(=O)n2C)SCC3)c1", "inactive"],
  ["CCOC(=O)c1ccccc1NC(=O)COC(=O)C(Cc1c[nH]c2ccccc12)NC(C)=O (stereo not given)", "inactive"],
  ["CCc1ccc(S(=O)(=O)Nc2cc3c(cc2N2CCCCC2)n(C)c(=O)c(=O)n3C)cc1", "inactive"],
  ["CCCOc1cc(C)c(S(=O)(=O)n2nnc3ccccc32)cc1C", "inactive"]
]}

Task: Consider the compound shown here: COc1ccc2occ(C(=O)c3ccc(N=C(C)N(C)C)cc3)c2c1 What is its recorded outcome?
Output: inactive

###

- Tested on: Plasmodium falciparum AMA1 (3D7) - RON2 peptide interaction
- experiment-notes: qHTS for Inhibitors of AMA1-RON; Towards Development of Antimalarial Drug Lead: Primary Screen; also: nearly all actives have a fitted effect of over 45% in size
- measurement-conditions: AlphaScreen AMA1-biotinylated RON2 peptide binding; series mostly up to 58.2 µM
The whole screen tested about 360,000 compounds, of which about 740 (0.21%) were called active. About 2% were inconclusive and are not listed. The call rests on the fitted dose curve; in most records, active means well fitted inhibition curve with a large enough effect; inconclusive means small, poorly fitted or top-dose-only effect; inactive means no such curve, though single readings can be large or run the other way. The full list was thinned out, with actives kept by preference.
// allowed return values: True (active), False (inactive)

These recorded examples may help you get a feel for the data.
{"columns": ["smiles-data", "assigned-class"],
 "data": [
  ["C=CC(=O)Nc1ccc(Nc2ccnc(Nc3ccc(N4CCN(C)CC4)cc3)n2)cc1", "True"],
  ["CCOc1ccccc1NC(=O)Cn1ncc2ccc([N+](=O)[O-])cc21", "False"],
  ["Cc1ccc(S(=O)(=O)/N=C(\\CN2CCOCC2)N2CCOCC2)cc1", "False"],
  ["O=C(Nc1ccc2c(c1)nc1n2CCCCC1)c1cc(S(=O)(=O)N2CCOCC2)ccc1Cl", "False"],
  ["CCOC(=O)c1c(-n2cnnn2)sc(C)c1C", "False"]
]}

Lab note: next molecule to report on.
Task: Dear all, I need the recorded test outcome for CN(C)C(=O)CSc1n[nH]c(-c2ccco2)n1 , thank you.
Output: False
